system_under_test: Rho-associated protein kinase 1 (Homo sapiens, UniProt Q13464); note: in the data inactive means no Kd found up to 30 µM
Sequence (Q13464 whole entry): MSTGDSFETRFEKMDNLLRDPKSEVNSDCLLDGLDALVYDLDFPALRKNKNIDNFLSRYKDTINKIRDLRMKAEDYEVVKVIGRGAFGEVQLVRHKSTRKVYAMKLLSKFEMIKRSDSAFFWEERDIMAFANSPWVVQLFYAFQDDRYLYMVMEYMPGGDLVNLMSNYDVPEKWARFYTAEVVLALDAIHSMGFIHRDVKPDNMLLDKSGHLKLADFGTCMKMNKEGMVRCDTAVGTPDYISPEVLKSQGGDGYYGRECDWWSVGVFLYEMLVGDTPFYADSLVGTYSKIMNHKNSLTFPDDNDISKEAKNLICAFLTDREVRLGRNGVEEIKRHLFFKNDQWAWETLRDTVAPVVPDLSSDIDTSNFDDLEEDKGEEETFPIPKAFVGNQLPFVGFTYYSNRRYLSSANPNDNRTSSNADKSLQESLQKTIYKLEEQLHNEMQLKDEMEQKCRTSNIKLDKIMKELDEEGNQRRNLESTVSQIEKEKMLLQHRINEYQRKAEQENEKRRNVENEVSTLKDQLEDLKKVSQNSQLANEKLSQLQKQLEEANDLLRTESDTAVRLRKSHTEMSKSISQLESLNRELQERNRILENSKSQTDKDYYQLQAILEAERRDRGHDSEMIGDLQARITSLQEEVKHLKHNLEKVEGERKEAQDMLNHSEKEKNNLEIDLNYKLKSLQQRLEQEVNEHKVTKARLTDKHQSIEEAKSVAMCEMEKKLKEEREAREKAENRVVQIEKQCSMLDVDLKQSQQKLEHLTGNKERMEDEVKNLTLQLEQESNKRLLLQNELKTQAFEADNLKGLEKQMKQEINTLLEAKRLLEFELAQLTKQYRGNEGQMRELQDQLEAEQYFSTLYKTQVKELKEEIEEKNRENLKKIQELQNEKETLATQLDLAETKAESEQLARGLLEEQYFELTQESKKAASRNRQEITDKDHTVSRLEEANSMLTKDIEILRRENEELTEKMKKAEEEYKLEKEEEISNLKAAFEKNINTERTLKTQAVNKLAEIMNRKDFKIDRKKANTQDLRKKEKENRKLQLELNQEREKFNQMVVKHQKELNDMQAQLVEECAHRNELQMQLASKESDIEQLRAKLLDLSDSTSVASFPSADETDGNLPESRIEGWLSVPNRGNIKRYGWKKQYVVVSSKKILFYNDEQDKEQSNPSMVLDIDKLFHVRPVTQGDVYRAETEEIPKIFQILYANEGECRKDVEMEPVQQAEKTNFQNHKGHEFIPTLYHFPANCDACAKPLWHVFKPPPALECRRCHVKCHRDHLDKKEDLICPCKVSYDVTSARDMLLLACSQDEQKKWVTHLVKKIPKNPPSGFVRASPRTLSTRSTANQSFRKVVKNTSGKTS
The source made the active and inactive calls.
Reply using exactly one outcome from active, inactive

Here are 3 molecules together with their reported answers.
COc1cc(N2CCC(N3CCN(C)CC3)CC2)ccc1Nc1ncnc(Nc2ccccc2S(=O)(=O)C(C)C)n1 [ASP-3026]    inactive
C=CC(=O)N1CCC(Oc2cc3c(Nc4ccc(Cl)c(Cl)c4F)ncnc3cc2OC)CC1 [POZIOTINIB]    inactive
CNS(=O)(=O)Nc1nccc(Cc2c(C)c3ccc(Oc4ncccn4)cc3oc2=O)c1F [AVUTOMETINIB]    inactive

**Query** GET /call?item= CNC(=O)CN1CCC(Oc2cc3c(Nc4cccc(Cl)c4F)ncnc3cc2OC)CC1 [SAPITINIB] returns the recorded outcome of this test.
**Result** inactive

**Query** Hey, what did the test say about Cc1ccc(-n2nc(C(C)(C)C)cc2NC(=O)NCc2cc(F)ccc2Oc2ccc3c(cnn3CCO)c2)cc1 [PEXMETINIB] ?
**Result** inactive

**Query** Hi, sorry to bother you, what did the test record for N[C@@H]1CCCN(c2c(/C=C3\SC(=O)NC3=O)cccc2-c2ccccc2)C1 ?
**Result** inactive
